Where these numbers come from: patent US20240261417A1

Catalogue of Dmax values
Target: SOS1 protein (Homo sapiens)
Assay: SOS1 degradation assay (Western blot), NCI-H358 cells
Assay type: cell-based
Parameters: The degradation of SOS1 by the compounds was investigated on KRAS G12C mutant human non-small cell lung cancer cells NCI-H358; host or cells: NCI-H358 (human cancer cell lines)
Conditions: SOS1 degradation, NCI-H358 cells, 24 h, Western blot; read-out: NCI-H358 (G12C) Dmax

Give its Dmax value. Item: CNCc1ccccc1-c1csc([C@@H](C)Nc2nc(C)nc3cc(OC)c([C@H]4CC[C@H](C(=O)N(C)CCCC5CCC6(CC5)CCN(C(=O)c5ccc(Cl)c(N7CCC(=O)NC7=O)c5)CC6)CC4)cc23)c1 [Example 49]
50 to 80%

Record: COc1cc2nc(C)nc(N[C@H](C)c3cccc(C(F)(F)F)c3F)c2cc1[C@H]1CC[C@H](C(=O)N2CCN(CC3CCC4(CC3)CCN(C(=O)c3ccc(Cl)c(N5CCC(=O)NC5=O)c3)CC4)CC2)CC1 [Example 16]
50 to 80%

Field entry: COc1cc2nc(C)nc(N[C@H](C)c3cc(N)cc(C(F)(F)F)c3)c2cc1[C@H]1CC[C@H](C(=O)N2CCN(CC3CCN(C(=O)c4ccc(Cl)c(N5CCC(=O)NC5=O)c4)CC3)CC2)CC1 [Example 13]
30 to 50%

Moving on to the next compound: COc1cc2nc(C)nc(N[C@H](C)c3cc(N)cc(C(F)(F)F)c3)c2cc1[C@H]1CC[C@H](C(=O)N2CCC(CCOCC3CCN(C(=O)c4ccc(Cl)c(N5CCC(=O)NC5=O)c4)CC3)CC2)CC1 [Example 19]
50 to 80%

What do we get for COc1cc2nc(C)nc(N[C@H](C)c3cc(-c4c(Cl)cccc4CN(C)C)cs3)c2cc1[C@H]1CC[C@H](C(=O)N2CCC(CCOCC3CCN(c4ccc5c(c4)C(=O)N(C4CCC(=O)NC4=O)C5=O)CC3)CC2)CC1 (some centres unmarked) [Example 41] ?
80 to 100%

* * *

Recorded DC50 values for a group of compounds are listed next.
Biological target: SOS1 protein (Homo sapiens, UniProt Q07889)
Sequence (Q07889 whole entry): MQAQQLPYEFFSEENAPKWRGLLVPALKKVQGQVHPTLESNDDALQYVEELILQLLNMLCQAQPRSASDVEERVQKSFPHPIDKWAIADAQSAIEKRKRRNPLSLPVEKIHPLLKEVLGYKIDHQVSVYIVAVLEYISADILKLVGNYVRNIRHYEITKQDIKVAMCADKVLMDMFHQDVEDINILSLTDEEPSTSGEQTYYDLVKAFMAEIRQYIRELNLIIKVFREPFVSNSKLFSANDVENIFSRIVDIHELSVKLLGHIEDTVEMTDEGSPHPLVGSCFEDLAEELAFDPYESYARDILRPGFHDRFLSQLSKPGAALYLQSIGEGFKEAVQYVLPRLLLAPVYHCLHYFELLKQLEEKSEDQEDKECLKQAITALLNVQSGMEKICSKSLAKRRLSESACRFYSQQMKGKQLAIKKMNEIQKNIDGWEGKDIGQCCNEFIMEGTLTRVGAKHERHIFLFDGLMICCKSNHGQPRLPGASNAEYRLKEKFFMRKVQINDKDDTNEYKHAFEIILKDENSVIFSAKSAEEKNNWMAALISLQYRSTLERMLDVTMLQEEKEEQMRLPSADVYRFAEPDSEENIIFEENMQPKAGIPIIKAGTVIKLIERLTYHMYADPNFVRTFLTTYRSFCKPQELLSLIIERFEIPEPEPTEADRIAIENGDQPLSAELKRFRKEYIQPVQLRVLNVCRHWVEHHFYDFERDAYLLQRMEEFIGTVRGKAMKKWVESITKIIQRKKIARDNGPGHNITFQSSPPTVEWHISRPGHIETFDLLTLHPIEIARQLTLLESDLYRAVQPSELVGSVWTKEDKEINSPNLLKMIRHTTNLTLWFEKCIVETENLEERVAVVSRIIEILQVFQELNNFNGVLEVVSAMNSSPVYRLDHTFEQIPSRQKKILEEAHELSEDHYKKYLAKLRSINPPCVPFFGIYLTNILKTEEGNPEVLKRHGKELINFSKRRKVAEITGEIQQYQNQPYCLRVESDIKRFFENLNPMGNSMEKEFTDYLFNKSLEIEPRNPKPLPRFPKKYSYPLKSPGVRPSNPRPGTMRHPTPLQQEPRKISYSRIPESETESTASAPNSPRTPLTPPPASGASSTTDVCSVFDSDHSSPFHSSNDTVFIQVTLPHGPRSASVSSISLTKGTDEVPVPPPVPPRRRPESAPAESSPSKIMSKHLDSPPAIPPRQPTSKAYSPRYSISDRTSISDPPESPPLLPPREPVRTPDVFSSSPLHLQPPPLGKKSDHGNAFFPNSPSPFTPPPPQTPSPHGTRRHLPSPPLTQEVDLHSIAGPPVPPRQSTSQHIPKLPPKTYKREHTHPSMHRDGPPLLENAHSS
Experiment: SOS1 degradation assay (Western blot), NCI-H358 cells
Assay type: cell-based
Set-up: The degradation of SOS1 by the compounds was investigated on KRAS G12C mutant human non-small cell lung cancer cells NCI-H358; host or cells: NCI-H358 (human cancer cell lines)
Details: SOS1 degradation, NCI-H358 cells, 24 h, Western blot; read-out: NCI-H358 (G12C) DC50
Description: The specific procedures were as follows: 0.95 mL of cells were seeded into each well of a 24-well cell culture plate to achieve a cell density of 5×10^5 cells/well; the cell plate was incubated in an incubator at 37° C. with 5% CO2 overnight. […] The concentration of total protein in the cell lysate supernatant was determined using the BCA Protein Quantification Kit (Tiangen, PA115-02). The concentration of total protein in the cell lysate was determined by BCA. […]

Use these answered entries as a reference point.
>  <Compound>
COc1cc2nc(C)nc(N[C@H](C)c3cc(-c4c(Cl)cccc4CN(C)C)cs3)c2cc1[C@H]1CC[C@H](C(=O)N2CCC(CCOCC3CCN(c4ccc5c(c4)C(=O)N(C4CCC(=O)NC4=O)C5=O)CC3)CC2)CC1 (some centres unmarked)

>  <Assay system>
SOS1 protein (Homo sapiens, UniProt Q07889)

>  <DC50>
100 to 500 nM

$$$$
>  <Compound>
CNCc1ccccc1-c1csc([C@@H](C)Nc2nc(C)nc3cc(OC)c([C@H]4CC[C@H](C(=O)N(C)CCCC5CCN(C(=O)c6ccc(Cl)c(N7CCC(=O)NC7=O)c6)CC5)CC4)cc23)c1

>  <Assay system>
SOS1 protein (Homo sapiens, UniProt Q07889)

>  <DC50>
1000 to 10000 nM

$$$$
>  <Compound>
COc1cc2nc(C)nc(N[C@H](C)c3cc(N)cc(C(F)(F)F)c3)c2cc1[C@H]1CC[C@H](C(=O)N2CCN(CCCOC3CCN(C(=O)c4ccc(Cl)c(N5CCC(=O)NC5=O)c4)CC3)CC2)CC1

>  <Assay system>
SOS1 protein (Homo sapiens, UniProt Q07889)

>  <DC50>
< 50 nM

$$$$

Quick check: DC50 of COCCOc1cc2nc(C)nc(N[C@H](C)c3cc(N)cc(C(F)(F)F)c3)c2cc1[C@H]1CC[C@H](C(=O)N2CCN(CC3CCC4(CC3)CCN(C(=O)c3ccc(Cl)c(N5CCC(=O)NC5=O)c3)CC4)CC2)CC1 ?
< 50 nM

Query COc1cc2nc(C)nc(N[C@H](C)c3cc(N)cc(C(F)(F)F)c3)c2cc1[C@H]1CC[C@H](C(=O)N2CCN(CC3CCC4(CC3)CCN(C(=O)c3ccc(N5CCC(=O)NC5=O)cc3)CC4)CC2)CC1 next
1000 to 10000 nM
